As shown below, each of these compounds has a reported MIC value.
- System: Salmonella enterica
- Protocol Details: Antibacterial activity against Salmonella Typhimurium ATCC 14028
- Format: functional, Salmonella enterica subsp. enterica serovar Typhimurium
Measured Parameter: MIC (µg/mL)

{"Compound": "O=C1C2=C(C3=NCCc4c[nH]c1c43)C1(C=C(Br)C(O)C(Br)=C1)CCN2 (stereo not given) [DIHYDRODISCORHABDIN C]", "System Name": "Salmonella enterica", "Unit String": "µg/mL", "Bound Sign": ">", "Numeric Result": 100}
{"Compound": "O=C1C2=C3C4=[N+](CCc5c[nH]c1c54)C1C(=O)C=C4S[C@@H](C[C@@]43[C@H]1O)N2", "System Name": "Salmonella enterica", "Unit String": "µg/mL", "Bound Sign": "=", "Numeric Result": 100}
{"Compound": "O=C1C(NC2Cc3cc(Br)c(O)cc3S2)=CC2=NCCc3c[nH]c1c32 (stereo not given)", "System Name": "Salmonella enterica", "Unit String": "µg/mL", "Bound Sign": "=", "Numeric Result": 100}
{"Compound": "O=C1C2=C3C4=[N+](CCc5c[nH]c1c54)C1C[C@@]34C[C@@H](N2)SC4=C[C@H]1O", "System Name": "Salmonella enterica", "Unit String": "µg/mL", "Bound Sign": ">", "Numeric Result": 100}
{"Compound": "O=C1C2=C3C4=[N+](CCc5c[nH]c1c54)C1[C@H](O)C=C4S[C@@H](C[C@@]43[C@H]1O)N2", "System Name": "Salmonella enterica", "Unit String": "µg/mL", "Bound Sign": ">", "Numeric Result": 100}
{"Compound": "O=C1C(Br)=CC2(C=C1Br)CCNC1=C2C2=NCCc3c[nH]c(c32)C1=O", "System Name": "Salmonella enterica", "Unit String": "µg/mL", "Bound Sign": ">", "Numeric Result": 100}
{"Compound": "O=C1C=C[C@]2(C=C1Br)CCNC1=C2C2=NCCc3c[nH]c(c32)C1=O", "System Name": "Salmonella enterica", "Unit String": "µg/mL", "Bound Sign": "=", "Numeric Result": 50}
{"Compound": "O=C1C2=C3C4=[N+](CCc5c[nH]c1c54)C1C[C@@]34C[C@@H](N2)SC4=CC1=O", "System Name": "Salmonella enterica", "Unit String": "µg/mL", "Bound Sign": ">", "Numeric Result": 100}
{"Compound": "O=C1C=C2S[C@H]3C[C@]2(C=C1Br)C1=C(N3)C(=O)c2[nH]cc3c2C1=NCC3 [(+)-DISCORHABDIN B]", "System Name": "Salmonella enterica", "Unit String": "µg/mL", "Bound Sign": "=", "Numeric Result": 100}
{"Compound": "O=C1C=CC2(C=C1)CCNC1=C2C2=NCCc3c[nH]c(c32)C1=O", "System Name": "Salmonella enterica", "Unit String": "µg/mL", "Bound Sign": ">", "Numeric Result": 100}
{"Compound": "CC1(C)S[C@@H]2[C@H](NC(=O)[C@H](N)c3ccccc3)C(=O)N2[C@H]1C(=O)O", "System Name": "Salmonella enterica", "Unit String": "µg/mL", "Bound Sign": "=", "Numeric Result": 3.12}
{"Compound": "O=C1C(NCCc2ccc(O)cc2)=CC2=NCCc3c[nH]c1c32", "System Name": "Salmonella enterica", "Unit String": "µg/mL", "Bound Sign": "=", "Numeric Result": 100}
{"Compound": "O=C1C2=C3C4=[N+](CCc5c[nH]c1c54)C1[C@H](O)CC(=O)[C@@]3(C[C@@H](O)N2)[C@H]1O", "System Name": "Salmonella enterica", "Unit String": "µg/mL", "Bound Sign": ">", "Numeric Result": 100}
{"Compound": "CO[C@H]1C2C(=O)C=C3S[C@H]4C[C@]31C1=C(N4)C(=O)c3[nH]cc4c3C1=[N+]2CC4", "System Name": "Salmonella enterica", "Unit String": "µg/mL", "Bound Sign": "=", "Numeric Result": 100}
{"Compound": "O=C1C=C[C@@]23C[C@@H](NC4=C2C2=NCCc5c[nH]c(c52)C4=O)SC3=C1", "System Name": "Salmonella enterica", "Unit String": "µg/mL", "Bound Sign": "=", "Numeric Result": 50}

Just for reference, ChEMBL document CHEMBL1154888 is where these values come from.
